The reported numbers originate from a melting point compilation (Tetko et al.; mined from patent text by program, amines drawn as free bases though some values may be those of a salt).

Items are presented alongside their recorded melting point.

Some solved cases for reference:
[[record]]
compound = "Cc1cc2[nH]c3ccccc3n2n1"
endpoint_value = "250 to 252 °C"

[[record]]
compound = "Cn1nc(-c2ccc(O)cc2)ccc1=O"
endpoint_value = "242 to 245 °C"

[[record]]
compound = "Nc1nc2ccc3cc(S(=O)(=O)Nc4ccc(C(=O)N[C@@H](CCC(=O)O)C(=O)O)cc4)c(Br)cc3c2c(=O)[nH]1"
endpoint_value = "238 to 242 °C"

[[record]]
compound = "CC1(C)CC=Nc2nc(N)c3ccccc3c21"
endpoint_value = "253 to 260 °C"

[[record]]
compound = "COc1cc(OC)c2c(=O)[nH]c(-c3ccc(OCCNC(C)C)c(-c4ccccc4)n3)nc2c1"
endpoint_value = "179 to 180 °C"

[[record]]
compound = "O[C@@H](COc1cccc(-c2noc3ccsc23)c1)CN1CCN(c2ccccc2)CC1"
endpoint_value = "127 to 129 °C"


Tell me the measured melting point of CCn1c(=O)c(C(=O)O)c(-c2ccccc2Cl)c2cc(C)c(C)cc21 , please.
168 to 170 °C

Tell me the measured melting point of OCC1OC(n2cnc3c(NC4CCc5ccccc54)ncnc32)C(O)C1O (stereo unspecified) , please.
120 to 122 °C

Tell me the measured melting point of CC(C)Nc1nc(Cl)nc(Cl)n1 , please.
46 to 47 °C

Tell me the measured melting point of O=Cc1ccc(-c2cc(C(F)(F)F)n(Cc3ccccc3)n2)o1 , please.
76.5 to 77.5 °C

Tell me the measured melting point of O=C(Nc1c([N+](=O)[O-])cnn1-c1c(Cl)cc(C(F)(F)F)c(Cl)c1Cl)C(F)(F)F , please.
136 to 137 °C

Tell me the measured melting point of Oc1ccc2c(c1)C[C@@H](NC[C@H](O)c1ccc(OCc3ccccc3)cc1)CC2 , please.
132 to 134 °C

Tell me the measured melting point of CN(C)C=C(C#N)C(=O)c1nccs1 , please.
126 °C

Tell me the measured melting point of CCN1C(=O)C(C)(C)N=C(c2ccccc2F)c2cc([N+](=O)[O-])cc(Cl)c21 , please.
156 °C

Tell me the measured melting point of O=C(O)COc1ccc(CCc2nc(-c3ccccc3)c(-c3ccccc3)o2)cc1 , please.
147 to 149 °C

Tell me the measured melting point of COc1ccccc1N1CCN(CCCNC(=O)c2cccc3c(=O)c(C)c(C4CCCC4)oc23)CC1 , please.
135 to 137 °C

Tell me the measured melting point of FC(F)(F)c1cc(Br)c(OCc2ccccc2)c(OCc2ccccc2)c1 , please.
79 to 80 °C

Tell me the measured melting point of CCCC(CCCCNC(=O)c1cc2ccc(C3OC(CO)C(O)C(O)C3O)cc2oc1=O)C(=O)O (stereo unspecified) , please.
162 °C

Tell me the measured melting point of Cc1ccc(C(=O)NCCCN(C)CCCNC(=O)c2ccc(C)c3nc4ccccc4nc23)c2nc3ccccc3nc12 , please.
218 to 220 °C

* * *

Items are presented alongside their recorded melting point.

Some solved cases for reference:
[[record]]
compound = "O=C(C1CCN(S(=O)(=O)c2ccc(Br)cc2)CC1)N1CCC(c2ccncc2)CC1"
property_label = "melting point"
endpoint_value = "154 to 155 °C"

[[record]]
compound = "COC(=O)N(C)C1CN(C(=O)Nc2ccc(OC(F)(F)F)cc2)NC1c1ccc(Cl)cc1 (configuration not stated)"
property_label = "melting point"
endpoint_value = "179 to 181 °C"

[[record]]
compound = "O=C1CCC2=C1C(c1ccc(F)c(Br)c1)C1=C(CCCCS1)N2 (configuration not stated)"
property_label = "melting point"
endpoint_value = "210 °C"

[[record]]
compound = "CCCOc1ccccc1-c1nc(O)cc(C(=O)OCC)n1"
property_label = "melting point"
endpoint_value = "137 to 138 °C"


Tell me the measured melting point of CC[C@@H](C1CC1)n1cc(Cl)nc(N2CCc3cc(Br)cc(Br)c32)c1=O , please.
165 °C

Tell me the measured melting point of COc1c(N2CC(C)C(NC3CC3)C(C)C2)c(F)cc2c(=O)c(C(=O)O)cn(C3CC3)c12 (configuration not stated) , please.
240 to 242 °C

Tell me the measured melting point of C=CCn1c2ccccc2c2c(N)c(C(=O)OC)c(C)nc21 , please.
78 to 85 °C

Tell me the measured melting point of Oc1cc2ccc(Cc3ccccc3)cc2cc1O , please.
177 to 187 °C

Tell me the measured melting point of COc1ccc(C2=NN(Cc3ccccc3)C(=O)[C@H]3CC=CC[C@@H]23)cc1OC (relative stereo) , please.
133 to 135 °C

Tell me the measured melting point of CC(C)NC(=O)Nc1ccnc(Br)c1 , please.
136 to 138 °C

Tell me the measured melting point of N#Cc1c[nH]cc1-c1ccc(Cl)cc1C(=O)c1ccccc1F , please.
177 to 179 °C

Tell me the measured melting point of CCOC(=O)C(=O)Nc1cccc(-c2nnn[nH]2)c1 , please.
192 to 193 °C

* * *

Items are presented alongside their recorded melting point.

Some solved cases for reference:
[[record]]
compound = "CCOc1cc2c(Nc3cc(OC)c(Cl)cc3Cl)c(C#N)cnc2cc1OCCC1CCN(C)CC1"
endpoint_value = "174 to 176 °C"

[[record]]
compound = "O=C1CCC(N2Cc3c(OCc4ccc(OCCN5CCOCC5)cc4)cccc3C2=O)C(=O)N1 (configuration not stated)"
endpoint_value = "203 to 205 °C"

[[record]]
compound = "Fc1ccc(-c2nc[nH]c2-c2ccc(F)cc2)cc1"
endpoint_value = "234 to 236 °C"

[[record]]
compound = "CC(C)(C)c1cc(SCCOC(=O)c2cc(C(C)(C)C)c(O)c(C(C)(C)C)c2)cc(C(C)(C)C)c1O"
endpoint_value = "136 to 139 °C"

[[record]]
compound = "COc1c(O)ccc2c1OCC2=O"
endpoint_value = "160 °C"

[[record]]
compound = "Cc1cccnc1NC(N)=S"
endpoint_value = "152 to 154 °C"


Now look at this one.
Tell me the measured melting point of O=c1[nH]c2ncc(-c3ccc(O)cc3)nc2n1CC1CCCCC1 , please.
302 to 303 °C

* * *

property.label: melting point

[[record]]
compound = "CCCCCCCCCCCCOC(=O)c1ccc2oc3ccccc3c(=O)c2c1"
property_label = "melting point"
endpoint_value = "79 to 81 °C"

[[record]]
compound = "OCC1C(c2ccc(F)cc2)CCC12C=Cc1ccccc12 (stereo not drawn)"
property_label = "melting point"
endpoint_value = "84 to 86 °C"

[[record]]
compound = "Nc1nc(Cl)cc(Oc2ccc3c(C(=O)Nc4cccc(C(F)(F)F)c4)cccc3c2)n1"
property_label = "melting point"
endpoint_value = "234 to 236 °C"

[[record]]
compound = "O=C(c1ccccc1)c1ccc2nc3c(C(=O)O)cccc3nc2c1"
property_label = "melting point"
endpoint_value = "236 to 237 °C"

[[record]]
compound = "Cc1c(C)c([N+](=O)[O-])c(C)c2c1OC(C)(C)C2c1ccccc1 (stereo not drawn)"
property_label = "melting point"
endpoint_value = "155 to 156 °C"


Tell me the measured melting point of COc1ccc2ccc(NC(=O)c3ccccc3)nc2n1 , please.
134 °C

Tell me the measured melting point of COc1cc([N+](=O)[O-])c2nc(C(F)(F)F)cc(O)c2c1 , please.
138 to 140 °C

Tell me the measured melting point of CCc1c(-c2ccc(OCc3ccccc3)cc2)c2c(COC)cc3c(OCc4ccccc4)ccc1n32 , please.
127 to 130 °C

* * *

property.label: melting point

[[record]]
compound = "Cc1cn(-c2ccc(N)cc2C(F)(F)F)c(C)n1"
property_label = "melting point"
endpoint_value = "163 to 164 °C"

[[record]]
compound = "O=c1c(Cc2ccc(-c3ccccc3)cc2)coc2cc(OS(=O)(=O)C(F)(F)F)ccc12"
property_label = "melting point"
endpoint_value = "110 °C"

[[record]]
compound = "O=C(O)CN=c1sc2ccccc2s1"
property_label = "melting point"
endpoint_value = "195 to 200 °C"

[[record]]
compound = "Cc1nc(-c2cccc(NC(=O)N3CCc4c(cnc5[nH]nc(Br)c45)C3)c2)no1"
property_label = "melting point"
endpoint_value = "> 152 °C"

[[record]]
compound = "Cn1cccc1C(N)=S"
property_label = "melting point"
endpoint_value = "87 to 88 °C"

[[record]]
compound = "Cc1nc2c3c(ccn2c1C)C(=O)CC(c1ccsc1)N3 (configuration not stated)"
property_label = "melting point"
endpoint_value = "176 to 177 °C"

[[record]]
compound = "CCOC(=O)c1csc(NC(=O)c2cc(C(C)(C)C)c(O)c(C(C)(C)C)c2)n1"
property_label = "melting point"
endpoint_value = "233 to 235 °C"

[[record]]
compound = "CC(C)Nc1ncc2c(n1)N(C)C(=O)C2"
property_label = "melting point"
endpoint_value = "120 to 123 °C"

[[record]]
compound = "Cc1cn(C2CC(C#N)C(COC(c3ccccc3)(c3ccccc3)c3ccccc3)O2)c(=O)[nH]c1=O (configuration not stated)"
property_label = "melting point"
endpoint_value = "153 to 157 °C"

[[record]]
compound = "CC(=O)Nc1cccnc1NC(=O)C(C)(C)Oc1cccc(Cl)n1"
property_label = "melting point"
endpoint_value = "185 °C"


Tell me the measured melting point of O=C(O)CCNC(=O)c1ccccc1NC(=O)c1ccccc1O , please.
200 to 202 °C

Tell me the measured melting point of Cc1oc(-c2ccccc2)nc1COc1ccc(COc2ccccc2CC(=O)O)cn1 , please.
123 to 125 °C
